Target: T1, soluble form of GPC3 core protein (human, UniProt P51654 25-563)
T1 construct: not shown: His tag added to the C-terminus
T1 sequence (P51654 25-563 S495A/S509A, form in doubt): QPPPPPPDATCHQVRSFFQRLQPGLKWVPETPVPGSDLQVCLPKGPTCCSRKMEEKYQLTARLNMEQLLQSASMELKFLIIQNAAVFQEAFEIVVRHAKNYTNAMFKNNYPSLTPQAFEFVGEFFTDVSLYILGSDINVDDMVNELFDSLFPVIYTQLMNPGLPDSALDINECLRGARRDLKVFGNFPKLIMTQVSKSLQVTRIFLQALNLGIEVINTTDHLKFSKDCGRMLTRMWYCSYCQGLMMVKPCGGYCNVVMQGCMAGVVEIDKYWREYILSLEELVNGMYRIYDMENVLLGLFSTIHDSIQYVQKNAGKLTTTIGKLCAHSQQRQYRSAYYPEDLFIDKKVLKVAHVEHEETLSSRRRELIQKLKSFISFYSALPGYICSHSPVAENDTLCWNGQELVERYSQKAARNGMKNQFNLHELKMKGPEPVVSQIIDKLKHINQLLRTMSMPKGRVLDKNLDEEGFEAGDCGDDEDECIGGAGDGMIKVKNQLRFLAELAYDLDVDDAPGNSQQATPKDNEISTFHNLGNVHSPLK
Experiment: competitive ELISA on coated soluble GPC3 core protein; labelled competitor biotin-M5B9;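 note: Biotin-labelled antibody added as 10 µL at 10 µg/mL for 1 h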
READOUT TYPE: Inhibition of the binding of indicated biotin-Mab to sGPC3 core (%)
Numbers only, in %.

Completed entries (count: 2):
BINDER | READOUT NUMBER
M11F1 (antibody, V domains shown, Mouse monoclonal from hybridoma) VH: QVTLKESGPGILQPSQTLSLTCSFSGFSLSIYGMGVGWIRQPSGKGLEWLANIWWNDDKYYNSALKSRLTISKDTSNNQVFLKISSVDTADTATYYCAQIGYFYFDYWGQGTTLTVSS VL: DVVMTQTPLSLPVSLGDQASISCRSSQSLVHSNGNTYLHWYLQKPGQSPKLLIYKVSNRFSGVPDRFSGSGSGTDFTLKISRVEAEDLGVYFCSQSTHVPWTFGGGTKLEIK | 5.4
M1E7 (antibody, human IgG1, kappa, V domains shown, Mouse monoclonal from hybridoma; also called M1E07) VH: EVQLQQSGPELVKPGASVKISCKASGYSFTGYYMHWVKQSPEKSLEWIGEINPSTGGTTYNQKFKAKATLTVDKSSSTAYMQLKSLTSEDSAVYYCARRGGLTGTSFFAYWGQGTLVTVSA VL: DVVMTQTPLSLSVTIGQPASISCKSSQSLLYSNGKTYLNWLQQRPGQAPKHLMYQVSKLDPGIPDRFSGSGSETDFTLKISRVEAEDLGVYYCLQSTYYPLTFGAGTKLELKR | 6.4

For the next question, use this binder.
Task: Identify measured Inhibition of the binding of indicated biotin-Mab to sGPC3 core (%) corresponding to L9G11 (antibody, V domains shown, Mouse monoclonal from hybridoma) VH: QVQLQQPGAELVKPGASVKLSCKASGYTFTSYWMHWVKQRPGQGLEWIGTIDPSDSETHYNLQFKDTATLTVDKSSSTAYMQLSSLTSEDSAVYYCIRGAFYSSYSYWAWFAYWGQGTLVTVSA VL: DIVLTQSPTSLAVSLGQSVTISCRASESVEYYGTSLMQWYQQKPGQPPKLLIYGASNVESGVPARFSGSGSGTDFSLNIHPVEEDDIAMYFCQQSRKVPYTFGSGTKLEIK
Output: 6.4
